Each entry below carries its recorded viability, T/C.
- System: KRAS patient-derived spheroids with HUVEC/MSC, viability;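 also: spheroids exposed to agents for seven days before readout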
- run description: Anticancer human tumor 941728-121-R-J1-PDC patient-derived lung adenocarcinoma cell line growth inhibition [KRAS2]
- condition: compound 1 µM; stronger effect = lower value

1) CCN1CCN(Cc2ccc(Nc3ncc(F)c(-c4cc(F)c5nc(C)n(C(C)C)c5c4)n3)nc2)CC1 :: 74.5% [middle of 5 runs]
2) C=CC(=O)N1CCN(c2nc(=O)n(-c3c(C)ccnc3C(C)C)c3nc(-c4c(O)cccc4F)c(F)cc23)C(C)C1 (configuration not stated) :: 22.8% [middle of 17 runs]
3) CC1(C)CCC(CN2CCN(c3ccc(C(=O)NS(=O)(=O)c4ccc(NCC5CCOCC5)c([N+](=O)[O-])c4)c(Oc4cnc5[nH]ccc5c4)c3)CC2)=C(c2ccc(Cl)cc2)C1 :: 51.1% [middle of 5 runs]
4) CC(C)NCC(C(=O)N1CCN(c2ncnc3c2C(C)CC3O)CC1)c1ccc(Cl)cc1 (configuration not stated) :: 43.8% [middle of 5 runs]
5) COc1cc(Nc2ncc3c(n2)-c2ccc(Cl)cc2C(c2c(F)cccc2OC)=NC3)ccc1C(=O)O :: 63.3% [middle of 5 runs]
6) CC(=O)OC12COC1CC(O)C1(C)C(=O)C(O)C3=C(C)C(OC(=O)C(O)C(NC(=O)OC(C)(C)C)c4ccccc4)CC(O)(C(OC(=O)c4ccccc4)C21)C3(C)C (configuration not stated) :: 53.8% [middle of 5 runs]

Next, consider the following molecule.
State its viability, T/C for this molecule: CC1COCCN1c1cc(-c2ccnn2C)c2ccnc(-c3ccn[nH]3)c2n1 (configuration not stated) 35.4% [middle of 5 runs]

Just for reference, PubChem BioAssay AID1963862 is where these values come from.
